Tested on: MDA-MB-231
Assay: NCI tumour cell line growth inhibition, 48 h
Activity calls are given as the source filed them. Rule as the data show it: active = GI50 up to about 1.1 µM and inactive = higher.
Recorded GI50 by entry

CCOC(=O)/C=C/C1(CCOC(C)=O)CCCCC1
> 10 µM (inactive)
CC(=O)NC(CC(C)C)C(=O)NC(CC(C)C)C(=O)NC(C=O)CCCNC(=N)N (stereo not drawn)
> 100 µM (inactive)

Consider now this further compound.
GI50 in this record for CCOC(=O)CCC(NC(=O)Cc1ccc(Nc2nc3ccccc3nc2-c2ccccc2)cc1)C(=O)OCC (stereo not drawn) : 16.9 µM (inactive)

----------
Tested on: HL-60
Experiment: NCI tumour cell line growth inhibition, 48 h
The source made the active and inactive calls. Rule as the data show it: active = GI50 up to about 1.1 µM and inactive = higher.
Value type: GI50

Example cases with answers are listed next.
C/C(=C\CO)CC[C@@H]1[C@@]2(C)CCCC(C)(C)[C@@H]2CC[C@@]1(C)O
20.5 µM (inactive)
Cc1ccc(/N=C2\OP(=O)(Nc3ccc(C)cc3)Oc3ccccc32)cc1 (stereo not given)
> 100 µM (inactive)
O=C(O)CCC(=O)c1ccc(Cl)cc1
> 100 µM (inactive)
Cn1nc(-c2ccccc2)c(C(=O)/C=C/c2ccc(Cl)cc2)c(N2CCOCC2)c1=O
1.85 µM (inactive)

Consider now this further molecule.
Measured GI50 for this entry `CCCCCOC(=O)c1cc2cc(CCl)ccc2oc1=O` on HL-60: 0.552 µM (active)

This collection of values is drawn from ChEMBL document CHEMBL1201862.
